Tested on: SW-620 colon
Assay: NCI-60 one-dose screen, 48 h (100 = growth as untreated, 0 = no growth, -100 = all killed)
Details: 10 µM unless noted
This is part of a sample that, as a whole, favours compounds with a hit. Of some 83,000 tested, about 20% had one in any assay. Activity calls are given as the source filed them. The calls were made as follows: active = growth percent below 10; inactive = the rest.
growth reference

These recorded examples may help you get a feel for the data.
| compound | growth |
| --- | --- |
| CCCCCC(/C=N\NC(=S)N/N=C/C(=C/c1ccccc1)CCCCC)=C\c1ccccc1 | 81.2% (inactive) |
| OCCn1cc(-c2nc(-c3c[nH]c4ncccc34)cs2)c2ccccc21 | 91.5% (inactive) |
| CCn1cc(C(=O)O)c(=O)c2cc(F)c(N3CCN(CC(=O)Nc4ccc(S(=O)(=O)Nc5nccc(C)n5)cc4)C(C)C3)c(F)c21 (centres undefined) | 96.6% (inactive) |

From here, focus on the item given below.
Request: Could you tell me which growth is on file for CC(=O)N1N=C(c2ccc(Nc3nc(Nc4ccccc4)nc(Nc4ccccc4)n3)cc2)CC1c1ccccc1 (centres undefined) ?
Response: 99% (inactive)

---

Test system: SF-268 CNS
Test: NCI-60 one-dose screen, 48 h (100 = growth as untreated, 0 = no growth, -100 = all killed)
Conditions: 10 µM unless noted
About 83,000 compounds went through this panel and 20% of them were active in at least one assay; those are over-represented in the sample as a whole.
property measured: growth (%)
Enter your answer as a number in %; do not include the unit.

These recorded examples may help you get a feel for the data.
| compound | study target | growth, % |
| --- | --- | --- |
| C#CCOC(=O)/C=C/c1cn(-c2ccccc2)nc1-c1ccc(OC)cc1 | SF-268 CNS | 87.9 |
| COc1ccc(-c2cc(-c3cc(OC)c(OC)c(OC)c3)c(C#N)c(=O)n2CCCCC(=O)NO)cc1 | SF-268 CNS | 87.9 |

Request: Could you tell me which growth is on file for `CCN1CCN(C(=O)[C@]23CCC(C)(C)C[C@@H]2C2=CC[C@@H]4[C@@]5(C)CCC(=O)C(C)(C)[C@@H]5CC[C@@]4(C)[C@]2(C)CC3)CC1` ?
Response: 41.5

Request: Could you tell me which growth is on file for `O=C(/C=C/c1cccc(Cl)c1)c1cccc(OCCCOc2cccc(C(=O)/C=C/c3cccc(Cl)c3)c2)c1` ?
Response: 98.8

Request: Could you tell me which growth is on file for `CNC(=O)c1ccccc1Oc1nc(Nc2cc(OC)c(OC)c(OC)c2)ncc1Br` ?
Response: 59.3

Request: Could you tell me which growth is on file for `CCCn1cc2c(=O)nc3sc(Cc4ccccc4)c(C)n3c2n1` ?
Response: 94.8

Request: Could you tell me which growth is on file for `COc1ccc(Nc2nnc(-c3ccc(OC)c(OC)c3)o2)cc1` ?
Response: 80.8

Request: Could you tell me which growth is on file for `O=C1c2ccc3c4c5ccc(c24)C(=O)N1CCCOCCCCOCCCNCc1ccc(cc1)CNCCCOCCCCOCCCN(C3=O)C5=O` ?
Response: 2.25

Request: Could you tell me which growth is on file for Nc1ncnc2c1C(c1ccccc1)c1ccc3ccccc3c1O2 (stereo not drawn) ?
Response: 84.7

---

System: COLO 205 colon
Experiment: NCI-60 one-dose screen, 48 h
Details: 10 µM unless noted
The panel holds about 83,000 compounds, 20% with a hit somewhere; the sample as a whole holds those more often. Active and inactive are the calls of the source. Rule for the calls: active = growth percent below 10; inactive = the rest.
# output must be one of TRUE (active), FALSE (inactive)

Worked examples, 10 molecules total:
| molecule | group |
| --- | --- |
| C1CN(SSN2CCOCC2)CCO1 | TRUE |
| CCOC(=O)n1cc(-c2nonc2-c2cn(C(=O)OCC)c3ccc(Br)cc23)c2ccccc21 | FALSE |
| CC(C)c1ccc(Cc2cnc(NC(=O)c3cc(Br)cs3)s2)cc1 | FALSE |
| O=C(CSc1nnc(-c2cnccn2)n1-c1ccccc1)c1ccc(Cl)cc1 | FALSE |
| c1ccc(Cn2cc3c(c2)-c2oncc2CC3)cc1 | FALSE |
| O=C1/C=C/[C@@H](O)[C@@H]2C[C@@H](O)C[C@H]2/C=C/CCC[C@H](CCc2ccccc2)O1 | TRUE |
| NS(=O)(=O)c1ccc(N=Nc2c(O)n(Cc3ccccc3)c3ccc(Cl)cc23)cc1 | FALSE |
| COc1ccc(Nc2nc(-c3cc(O)c(C)c(C)c3O)cs2)cc1 | FALSE |
| C#COc1cccc(Nc2c(C#N)cnc3ncc(NC(=O)CCl)cc23)c1 | FALSE |
| COC(CC(F)F)c1cn(S(=O)(=O)c2ccc(C)cc2)c2ccccc12 (stereo unspecified) | TRUE |

Request: What did this assay record as the result for `CC/C(=C(/c1ccc(Cl)cc1)c1ccc(OCCN2CCCCC2)cc1)c1ccc(OC)cc1` ?
Response: FALSE

Request: What did this assay record as the result for `CC(C)(Sc1cc(C(C)(C)C)c(OC(=O)CCCC(=O)O)c(C(C)(C)C)c1)Sc1cc(C(C)(C)C)c(OC(=O)CCCC(=O)O)c(C(C)(C)C)c1` ?
Response: FALSE

Request: What did this assay record as the result for `CCN(C)S(=O)(=O)Nc1cccc(Nc2ncnc3cc(NC(=O)CCl)ccc23)c1Cl` ?
Response: TRUE

Request: What did this assay record as the result for `COc1cc2oc(-c3cccc(NC(=O)c4ccccc4)c3)cc(=O)c2c(OC)c1OC` ?
Response: FALSE

Request: What did this assay record as the result for `COC(=O)[C@]12CCC(C)(C)C[C@H]1[C@H]1/C(=N/OCCc3nn[nH]n3)C[C@@H]3[C@@]4(C)CC[C@H](OC(C)=O)C(C)(C)[C@@H]4CC[C@@]3(C)[C@]1(C)CC2` ?
Response: FALSE

Request: What did this assay record as the result for `CCOC(=O)c1ccc(NC(=O)c2nc(-c3cc(OC)c(OC)c(OC)c3)n(-c3ccc(Cl)cc3)n2)cc1` ?
Response: FALSE

Request: What did this assay record as the result for N#CC1=C(c2ccccc2)Nc2c(c(-c3ccc(Cl)cc3)nn2-c2ccccc2)C12C(=O)Nc1ccc(Cl)cc12 (stereo unspecified) ?
Response: FALSE

Request: What did this assay record as the result for `CCN(CC)Cc1cc(C=C2C(=O)NC(=S)NC2=O)cc(OC)c1O` ?
Response: FALSE

Request: What did this assay record as the result for `CNc1nnc2n(-c3ccccc3)c(=O)c3cnn(-c4ccccc4)c3n12` ?
Response: FALSE

---

Tested on: HOP-62 NSCLC
Experiment: NCI-60 one-dose screen, 48 h
Settings: 10 µM unless noted
About 83,000 compounds went through this panel and 20% of them were active in at least one assay; those are over-represented in the sample as a whole. Calls of active or inactive are those of the source. How the source made its calls: active means growth percent below 10; inactive means the rest.
# output must be one of active, inactive

Worked examples, 10 compounds total:
| compound | group |
| --- | --- |
| c1cc2c(ccc3[nH]c(-c4ccc5[nH]ncc5c4)c4c(c32)CCCC4)n1 | inactive |
| CC1CCN(CCOc2ccc(CNc3ccc4nc(CCC5CCCCC5)[nH]c4c3)cc2)CC1 | inactive |
| N#Cc1c(-c2ccccc2)cc(-c2ccccc2)n(CCCC(=O)Nc2ccccc2N)c1=O | inactive |
| COC(=O)c1nc(-c2ccccc2)oc1S(=O)(=O)Cc1ccccc1 | inactive |
| Cn1ccnc1C(=O)/C=C/c1ccc(C(=O)Nc2ccccc2O)cc1 | inactive |
| Nc1[nH]n2cc(-c3ccccc3)nc2c1N=Nc1ccc(S(N)(=O)=O)cc1 | inactive |
| O=C(Nn1c2c(sc1=NC1CC1)C(=O)c1ccccc1C2=O)c1cc2ccc1CCc1ccc(cc1)CC2 | inactive |
| COC1/C=C/OC2(C)Oc3c(C)c(O)c4c(O)c(c(/C=N/Nc5ccc([N+](=O)[O-])cc5[N+](=O)[O-])c(O)c4c3C2=O)NC(=O)C(C)=C/C=C/C(C)C(O)C(C)C(O)C(C)C(OC(C)=O)C1C (configuration not stated) | inactive |
| Nc1c(C(=O)Nc2ccccc2C(F)(F)F)sc2nc3c(cc12)CCC3 | inactive |
| N#Cc1ccc2c(c1)C(=O)c1c-2n(CCCN)c(=O)c2cc([N+](=O)[O-])ccc12 | active |

Request: What did this assay record as the result for CC(C)(C)[Si](C)(C)OC1[C@@H](CNC(=O)NC(=O)NC(N)=O)O[C@@H](n2cnc3c(NC(=O)Nc4ccccc4)ncnc32)[C@H]1O[Si](C)(C)C(C)(C)C (some centres not stated) ?
Response: inactive

Request: What did this assay record as the result for `CC(=O)O[C@@H]1C[C@]2(C(C)C)O[C@@]1(C)[C@@H]1CCC(C)=C1[C@@H]2OC(=O)/C=C/c1ccccc1` ?
Response: inactive

Request: What did this assay record as the result for `O=C(/C=C(/C=C/c1ccc2[nH]ccc2c1)OB(F)F)/C=C/c1ccc2[nH]ccc2c1` ?
Response: active

Request: What did this assay record as the result for `CCC(=O)Oc1ccc(-c2ccccc2)cc1Br` ?
Response: inactive
